Target: human ether-à-go-go-related gene (hERG) potassium channel (human, UniProt Q12809);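 also: peak tail current of the secondary pulse compared with the same well before compound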
Sequence (Q12809 whole entry, looked up): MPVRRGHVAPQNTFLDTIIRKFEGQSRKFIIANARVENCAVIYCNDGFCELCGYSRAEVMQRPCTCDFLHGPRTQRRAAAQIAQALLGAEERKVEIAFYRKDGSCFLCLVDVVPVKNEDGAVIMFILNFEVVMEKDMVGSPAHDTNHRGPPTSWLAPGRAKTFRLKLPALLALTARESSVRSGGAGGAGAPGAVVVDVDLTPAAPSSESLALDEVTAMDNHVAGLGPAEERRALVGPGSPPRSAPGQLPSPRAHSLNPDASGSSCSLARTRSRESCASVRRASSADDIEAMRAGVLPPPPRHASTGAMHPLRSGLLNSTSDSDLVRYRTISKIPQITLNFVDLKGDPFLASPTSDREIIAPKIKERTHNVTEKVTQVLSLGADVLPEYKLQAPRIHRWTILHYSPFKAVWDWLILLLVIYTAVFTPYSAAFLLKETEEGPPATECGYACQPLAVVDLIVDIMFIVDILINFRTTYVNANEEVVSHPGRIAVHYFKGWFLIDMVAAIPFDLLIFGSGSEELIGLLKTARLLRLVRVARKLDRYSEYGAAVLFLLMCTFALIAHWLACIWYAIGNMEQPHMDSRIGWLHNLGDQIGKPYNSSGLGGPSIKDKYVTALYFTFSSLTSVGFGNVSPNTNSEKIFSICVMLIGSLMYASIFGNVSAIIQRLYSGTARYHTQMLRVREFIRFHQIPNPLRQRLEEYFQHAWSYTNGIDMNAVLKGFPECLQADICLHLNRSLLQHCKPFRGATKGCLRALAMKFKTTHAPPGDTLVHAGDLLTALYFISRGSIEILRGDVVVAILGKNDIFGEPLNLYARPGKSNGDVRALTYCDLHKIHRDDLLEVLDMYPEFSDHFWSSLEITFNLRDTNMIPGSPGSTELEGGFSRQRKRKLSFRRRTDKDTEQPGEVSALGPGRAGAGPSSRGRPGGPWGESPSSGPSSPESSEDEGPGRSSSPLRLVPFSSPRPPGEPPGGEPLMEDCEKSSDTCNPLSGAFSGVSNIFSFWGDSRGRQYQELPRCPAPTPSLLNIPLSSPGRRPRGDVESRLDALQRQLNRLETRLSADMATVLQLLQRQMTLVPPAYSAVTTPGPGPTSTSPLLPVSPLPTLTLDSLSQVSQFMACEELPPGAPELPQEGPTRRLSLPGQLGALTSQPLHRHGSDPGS
Test: primary screen, population patch clamp on CHO cells stably expressing hERG; higher = less effect of the substance
Among all 310,000 compounds or so, about 14,000 (4.5%) showed an effect of 50% or more. Effects have a minus sign here. The list comes from a sample in which strong results are over-represented; it also holds close analogues and randomly drawn compounds.
I'd be grateful if you could share measured hERG current change (%, negative = inhibition) at 10uM for these entries.
Give just the numeric value; % need not be written.

[in] Return value of hERG current change (%, negative = inhibition) at 10uM for input COc1ccccc1-n1c(C)nnc1SCC(=O)NCc1ccccc1 , no commentary.
[out] 11.5

[in] Return value of hERG current change (%, negative = inhibition) at 10uM for input O=C(CSc1ncccn1)N1CCN(Cc2ccccc2)CC1 , no commentary.
[out] 9.31

[in] Return value of hERG current change (%, negative = inhibition) at 10uM for input S=C1NC[C@H](Cc2ccccc2)N1CCCCC1CCCCC1 , no commentary.
[out] 4.71

[in] Return value of hERG current change (%, negative = inhibition) at 10uM for input Cc1ccc(C)c(S(=O)(=O)C(C#N)c2nc3ccccc3nc2N2CC(C)OC(C)C2)c1 (centres unmarked) , no commentary.
[out] 4.01

[in] Return value of hERG current change (%, negative = inhibition) at 10uM for input CCc1cccc(NC(=O)CCSCCC(=O)Nc2cccc(CC)c2)c1 , no commentary.
[out] -9.75

[in] Return value of hERG current change (%, negative = inhibition) at 10uM for input Cc1ccccc1CSc1nnc(-c2ccco2)n1Cc1ccco1 , no commentary.
[out] -75.4

[in] Return value of hERG current change (%, negative = inhibition) at 10uM for input O=C(/C(=N\Nc1ccc([N+](=O)[O-])cc1)Sc1nnnn1-c1ccccc1)c1ccccc1 , no commentary.
[out] 17.9

[in] Return value of hERG current change (%, negative = inhibition) at 10uM for input CCN(Cc1ccncc1)C(=O)c1cc(COc2c(F)cccc2F)on1 , no commentary.
[out] -36

[in] Return value of hERG current change (%, negative = inhibition) at 10uM for input Oc1c(C(Nc2cccc(C(F)(F)F)c2)c2ccncc2)ccc2cccnc12 (centres unmarked) , no commentary.
[out] 12.3

[in] Return value of hERG current change (%, negative = inhibition) at 10uM for input CC(=O)c1ccc(OCc2cc(C(=O)N(C)Cc3nc4c(C)cccc4[nH]3)no2)cc1 , no commentary.
[out] -10.7

[in] Return value of hERG current change (%, negative = inhibition) at 10uM for input CCN(Cc1ccncc1)C(=O)c1ccco1 , no commentary.
[out] -73.5

[in] Return value of hERG current change (%, negative = inhibition) at 10uM for input COc1cc2c(cc1OC)C(c1ccccc1Cl)N(C)CC2 (centres unmarked) , no commentary.
[out] 1.73

[in] Return value of hERG current change (%, negative = inhibition) at 10uM for input COc1cc(OC)cc(-c2c(-c3ccc(F)cc3)c3cc(-c4ccc5cc[nH]c5c4)ccc3n2C)c1 , no commentary.
[out] 14.2

[in] Return value of hERG current change (%, negative = inhibition) at 10uM for input O=C(Nc1ccc2oc(-c3cccnc3)nc2c1)c1ccco1 , no commentary.
[out] -33.2

[in] Return value of hERG current change (%, negative = inhibition) at 10uM for input CCCCN(CCCC)CC(O)Cn1c2ccccc2c(=O)c2ccccc21 (centres unmarked) , no commentary.
[out] -68

[in] Return value of hERG current change (%, negative = inhibition) at 10uM for input O=C(CSc1nnc(-c2ccco2)n1Cc1ccccc1)NC(=O)NCc1ccco1 , no commentary.
[out] -74.7

[in] Return value of hERG current change (%, negative = inhibition) at 10uM for input Cn1cc(CN2CCN(c3cnccn3)CC2)c(-c2cccc(Cl)c2)n1 , no commentary.
[out] 6.29

[in] Return value of hERG current change (%, negative = inhibition) at 10uM for input O=C(CSc1nnc(-c2ccco2)n1Cc1ccccc1)NC(=O)NCc1ccccc1 , no commentary.
[out] -13.3

[in] Return value of hERG current change (%, negative = inhibition) at 10uM for input O=C(NCS(=O)(=O)c1ccccc1)c1ccccc1 , no commentary.
[out] -0.415

[in] Return value of hERG current change (%, negative = inhibition) at 10uM for input c1ccc(CSc2nnc(-c3ccco3)n2Cc2ccccc2)cc1 , no commentary.
[out] -46
